For each entry below, report its AUC (0-72 h) ratio Tumor/Lung value.
test system: ASPC-1 tumor-bearing mice; assay: Biodistribution of radionuclide labeled complexes in ASPC-1 tumor-bearing mice; assay type: in vivo, BALB/c nude mice; conditions: ^177Lu-labeled complex
One number for each entry.

COc1cccc(OC)c1-c1cc(C(=O)NC2(C(=O)O)C3CC4CC(C3)CC2C4)nn1-c1ccc(N(C)CCCN(C)CCCN(C)C(=O)CN2CCN(CC(=O)O)CCN(CC(=O)O)CCN(CC(=O)O)CC2)cc1C(C)C (stereo not drawn) [Compound I-1]; 39.3
COc1cccc(OC)c1-c1cc(C(=O)NC2(C(=O)O)C3CC4CC(C3)CC2C4)nn1-c1ccc(NCCOCCOCCNC(=O)CN2CCN(CC(=O)O)CCN(CC(=O)O)CCN(CC(=O)O)CC2)cc1C(C)C (stereo not drawn) [Compound I-10]; 31.3
COc1cccc(OC)c1-c1cc(C(=O)NC2(C(=O)O)C3CC4CC(C3)CC2C4)nn1-c1ccc(OCCCN(C)CCCN(C)C(=O)CN2CCN(CC(=O)O)CCN(CC(=O)O)CCN(CC(=O)O)CC2)cc1C(C)C (stereo not drawn) [Compound I-7]; 40.1
COc1cccc(OC)c1-c1cc(C(=O)NC2(C(=O)O)C3CC4CC(C3)CC2C4)nn1-c1ccc(NCCCN(C)CCCNC(=O)CN2CCN(CC(=O)O)CCN(CC(=O)O)CCN(CC(=O)O)CC2)cc1C(C)C (stereo not drawn) [Compound I-2]; 39.4
COc1cccc(OC)c1-c1cc(C(=O)NC2(C(=O)O)C3CC4CC(C3)CC2C4)nn1-c1ccc(NC(=O)CCCN(C)CCCN(C)C(=O)CN2CCN(CC(=O)O)CCN(CC(=O)O)CCN(CC(=O)O)CC2)cc1C(C)C (stereo not drawn) [Compound I-5]; 48.3

Please look at the following compound next.
Req: Please state recorded AUC (0-72 h) ratio Tumor/Lung (tested on ASPC-1 tumor-bearing mice) of COc1cccc(OC)c1-c1cc(C(=O)NC2(C(=O)O)C3CC4CC(C3)CC2C4)nn1-c1ccc(C(=O)N(C)CCCN(C)CCCN(C)C(=O)CN2CCN(CC(=O)O)CCN(CC(=O)O)CCN(CC(=O)O)CC2)cc1C(C)C (stereo not drawn) [Compound C-2, reference compound]
Resp: 14.2
